Each entry below lists one item and its recorded switch fluorescence ratio value.
# Test system: ATP;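 further: ATP exposure 15 min at 22 °C before imaging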
# Method summary: switch fluorescence ratio, 500 uM ATP over buffer (Cy3 cluster intensity, sum of 5 cycles each) (fold (ratio)); higher = stronger signal-on switching upon ATP binding; sequences stand for … in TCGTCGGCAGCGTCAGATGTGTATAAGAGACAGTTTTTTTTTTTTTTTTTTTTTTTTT…TC
# Settings: aptamer strand: ATP DNA aptamer (quencher-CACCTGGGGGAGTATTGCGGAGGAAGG + anchor), 100 nM annealed; ATP concentration: 500 uM
Could you respond with only the numeric value?

Request: For the sequence shown here, AGGGAGAGAG , give the reported switch fluorescence ratio.
Response: 0.997

Request: Look up switch fluorescence ratio: TGTTGGTAAT
Response: 0.996

Request: Record request: switch fluorescence ratio value, item TGGTGTATCC
Response: 0.985

Request: What switch fluorescence ratio value was documented for this sequence, AGTTAGTAAG ?
Response: 1.01

Request: Which switch fluorescence ratio is reported for this sequence? GGGAAGGCAT
Response: 0.986

Request: Give its switch fluorescence ratio value. Item: ATTGATGCTT
Response: 0.979

---
Request: Endpoint output: switch fluorescence ratio of GGGAAATTGG . Value?
Response: 1

Request: Recorded switch fluorescence ratio of TTGGTTTGTC , please.
Response: 0.99

Request: Could you tell me which switch fluorescence ratio is on file for GGCGCGCGGT ?
Response: 0.98

Request: Look up switch fluorescence ratio for this sequence: TGGTCGCGAT
Response: 1.53

These data points were gathered from the supplement of paper PMC10126150.
